Tested on: T1, human LIF protein (human, UniProt P15018 23-202)
T1 construct: Bought recombinant protein (Sino Biological / Yiqiao Shenzhou 14890-HNAH) in most assays; also called recombinant human LIF protein; rhLIF
T1 sequence (P15018 23-202 limits assumed): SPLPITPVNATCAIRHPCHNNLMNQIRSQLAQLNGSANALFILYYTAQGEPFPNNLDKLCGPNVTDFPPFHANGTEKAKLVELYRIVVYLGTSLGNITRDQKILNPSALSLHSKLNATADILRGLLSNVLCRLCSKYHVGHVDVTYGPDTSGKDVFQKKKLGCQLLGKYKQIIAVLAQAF
Experiment: ELISA, antigen coated 0.5 ug/ml, 293S supernatant non-heated, antibody 0.04 ug/mL
For each record, write down the corresponding ELISA signal.

Reference set (2 entries):
Binder	Experimental result
38E HuH1L4 (antibody, human IgG1, kappa, N297A, V domains shown, Humanized, human IgG1 / kappa) VH: EVMLLESGGGLVQPGGSLRLSCAASGFIFSSYAMSWVRQAPGTGLEWVATISSGGSNTYSPDTVKGRFTISRDNSKNTLYLQMNSLRAEDTAVYYCARYYGYYFDFWGQGTLLTVSS VL: DIHMTQSPSSLSASVGDRVTITCRASENIYSYLAWYQQKQGKSPQLLVYNAKTLAEGVPSRFSGSGSGTQFTLKINSLQPEDFATYYCQHHYVTPLTFGQGTKLEIKR	7320
H1L3 (antibody, human IgG1, kappa, N297A, V domains shown, Humanized, human IgG1 / kappa) VH: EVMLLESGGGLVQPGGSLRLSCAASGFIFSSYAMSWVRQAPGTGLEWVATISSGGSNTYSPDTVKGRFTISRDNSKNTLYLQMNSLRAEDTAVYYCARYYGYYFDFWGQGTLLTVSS VL: DIHMTQSPSSLSASVGDRVTITCRASENIYSYLAWYQQKPGKSPQLLVYNAKTLAEGVPSRFSGSGSGTQFTLTISSLQPEDFATYYCQHHYVTPLTFGQGTKLEIKR	6440

Proceeding to the next binder to report its ELISA signal.
Q. Looking for the measured ELISA signal of 38E HuH2L4 (antibody, human IgG1, kappa, V domains shown, Humanized, human IgG1 / kappa) VH: EVMLVESGGGLVQPGGSLRLSCAASGFIFSSYAMSWVRQAPGTGLEWVATISSGGSNTYSPDTVKGRFTISRDNSKNTLYLQMNSLRAEDTAMYYCARYYGYYFDFWGQGTLLTVSS VL: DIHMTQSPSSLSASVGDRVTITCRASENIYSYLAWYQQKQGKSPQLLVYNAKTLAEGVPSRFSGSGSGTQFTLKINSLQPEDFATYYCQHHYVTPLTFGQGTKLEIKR , can you help?
A. 6880
